# test_details: log P
# Type: physicochemical
reported_metric: log P
One number for each entry.

Solved cases (5 shown):
[
  {
    "compound": "CC(C)=CC(CC(C)(C)c1ccc(C)cc1)N(C)C1CCOCC1 (stereo not drawn)",
    "log P": 5.13
  },
  {
    "compound": "CC(C)=CC(CCc1ccc(C)cc1)N1CCCCC1 (stereo not drawn)",
    "log P": 5.43
  },
  {
    "compound": "COc1cc(CCC(C)(C)N2Cc3cccc(C(=O)N4CCN(C(=O)[C@@H](Cc5ccccc5)NC(C)=O)CC4)c3C2)ccc1O",
    "log P": 3.85
  },
  {
    "compound": "CC(C)=CC(CC(C)(C)c1ccc(Cl)cc1)N1CCC(Oc2ccccc2)CC1 (stereo not drawn)",
    "log P": 6.91
  },
  {
    "compound": "COC[C@@H]1CCCN1[C@@H](C=C(C)C)CC(C)(C)c1ccc(F)cc1",
    "log P": 5.22
  }
]

# context switch: different compound, same log P
Using known records, supply log P for CCCCC1(O)CCN(C(C=C(C)C)CC(C)(C)c2ccc(F)cc2)CC1 (stereo not drawn) 5.81

* * *

Provide the recorded MLM T1/2 for the entries that follow.
# test_details: Mouse liver microsome (MLM) stability
# Assay type: in vitro ADME
# protocol_conditions: microsomal stability in mouse liver microsomes (MLM)
Answers are plain numbers, in min.

Solved cases (3 shown):
[
  {
    "compound": "CC(C)=CC(CCc1ccc(F)cc1)N1CCC(C2CCOCC2)CC1 (centres unmarked)",
    "reported_metric": "MLM T1/2",
    "observed_result": 11
  },
  {
    "compound": "CC(C)=CC(CC(C)(C)c1ccc(F)cc1)N1CCC(CCO)CC1 (centres unmarked)",
    "reported_metric": "MLM T1/2",
    "observed_result": 39
  },
  {
    "compound": "COc1ccc(C(C)(C)CC(C=C(C)C)N(C)C2CCOCC2)cc1 (centres unmarked)",
    "reported_metric": "MLM T1/2",
    "observed_result": 7.3
  }
]

Provide MLM T1/2 for all items below, preserving their order.
1. CC(C)=CC(CC(C)(C)c1ccc(F)cc1)N1CCC2(CCOCC2)CC1 (centres unmarked)
2. CC(C)=CC(CC(C)(C)c1ccc(F)cc1)N1CCCCC1 (centres unmarked)
3. CC(C)=CC(CCc1ccc(Cl)cc1)N1CCOCC1 (centres unmarked)
4. CC(C)=CC(CC(C)(C)c1ccc(C(F)(F)F)cc1)N1CCC(C(F)(F)F)CC1 (centres unmarked)
5. CC(C)=CC(CCc1ccc(Cl)cc1)N1CCC(C2CCOCC2)CC1 (centres unmarked)

1: 25; 2: 11; 3: 1.5; 4: 14; 5: 1.3

* * *

# experimental_target: Sigma-2 receptors on membranes from rat cerebral cortex (Rattus norvegicus (Rat), UniProt Q5U3Y7)
# Sequence (Q5U3Y7 whole entry): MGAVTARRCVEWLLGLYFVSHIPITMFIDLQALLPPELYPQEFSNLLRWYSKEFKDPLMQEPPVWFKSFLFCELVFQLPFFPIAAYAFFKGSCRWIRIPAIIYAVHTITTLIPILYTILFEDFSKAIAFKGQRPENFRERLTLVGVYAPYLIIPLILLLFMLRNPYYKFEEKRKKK
reported_metric: Ki (nM)
Numbers only, in nM.

Solved cases (3 shown):
[
  {
    "compound": "CCOC1CCN(C(C=C(C)C)CC(C)(C)c2ccc(F)cc2)CC1 (centres unmarked)",
    "Ki, nM": 160
  },
  {
    "compound": "CC(C)=CC(CC(C)(C)c1ccc(Cl)cc1)N1CCC(C2CCN(C)CC2)CC1 (centres unmarked)",
    "Ki, nM": 74
  },
  {
    "compound": "CC(C)=CC(CC(C)(C)c1ccc(C)cc1)N1CCN(CC(C)C)CC1 (centres unmarked)",
    "Ki, nM": 85
  }
]

Provide Ki for all items below, preserving their order.
1. CC(=O)N1CCN(C(C=C(C)C)CC(C)(C)c2ccc(Cl)cc2)CC1 (centres unmarked)
2. COc1ccc(C(C)(C)CC(C=C(C)C)NCC2CCOCC2)cc1 (centres unmarked)

1. 690
2. 430
